Target: Cyclin-dependent kinase 2/cyclin A (Homo sapiens, UniProt P24941)
Experiment: Inhibition of CDK2/cyclin A
reported.metric: IC50 (nM)

// known answers, use as guide
smiles.str | IC50 (nM)
CCOC(=O)N1CCC(Nc2ncc3c(n2)-c2c(c(C(=O)NC)cn2C)CC3)CC1 | 57.9
CNC(=O)c1cn(C)c2c1CCc1cnc(NC3CCN(C(=O)N4CCN(C)CC4)CC3)nc1-2 | 1120

I = CNC(=O)c1cn(C)c2c1C(C)(C)Cc1cnc(Nc3cccc(CN4CCOCC4)c3)nc1-2
II = CNC(=O)c1cn(C)c2c1CCc1cnc(NC3CCN(C(=O)c4ccccc4)CC3)nc1-2
Which entry shows the lesser value of IC50 here, I or II ? Use the label to indicate which entry you chose.
II
(II: 25 nM, I: 160 nM)

1 = Cn1cc(C(N)=O)c2c1-c1nc(NC3CCN(S(C)(=O)=O)CC3)ncc1CC2
2 = Cn1cc(C(N)=O)c2c1-c1nc(NCc3ccccc3)ncc1CC2
3 = NC(=O)c1cn(-c2ccccc2)c2c1CCc1cnc(NC3CCCC3)nc1-2
Write the entries in order, lowest recorded IC50 first. Output spec: a listing of the labels in the requested order.
1, 3, 2
